# maps each entry to its log10 of TGI
# System: SK-MEL-5 melanoma
# Experiment notes: NCI tumour cell line growth inhibition, 48 h
Please keep in mind that the values are log10 of TGI expressed in µM.

Examples with their reported log10 of TGI follow.
CCOC(=O)Nc1nc2c(C)cccc2s1	1.96
COc1ccccc1/C=C/C(=O)/C=C/c1ccccc1OC	0.46
COc1cc(/C=C(\OC(C)=O)c2ccc3c(c2)OCO3)cc(OC)c1OC	1.39
Cc1cc2nc(N3C(=O)/C(=C/c4ccc(Cl)cc4)N=C3c3ccccc3)sc2cc1C	1.64
CC(=O)OCC1OC(O/C=C(\CN=[N+]=[N-])C(C)=O)C(OC(C)=O)C(OC(C)=O)C1OC(C)=O (centres undefined)	1.42

Could you tell me which log10 of TGI is on file for `O=C1C(NCCN2CCOCC2)=C(Cl)C(=O)c2ncccc21` ?
0.04

Can you share its log10 of TGI? I mean this compound: `Cc1nnc(-n2c(O)cc(=O)n(-c3ccccc3)c2=S)nc1/C=C/c1ccc(N(C)C)cc1`
1.34

----------
# System: SK-MEL-5 melanoma
# Experiment notes: NCI tumour cell line growth inhibition, 48 h
Reported metric: log10 TGI (log10 of the value in µM)
Units before log transform: µM; reported quantity: TGI; transform: log10.

Which value of log10 TGI has been reported for `CCN(CC)CCCOc1cc2c(cc1OC)C(=O)N1CCC[C@H]1C=N2` in the records?
1.80

So what's the measured log10 TGI for this one? `Oc1ccc(O)c(CNc2ccccc2)c1`
1.53

Look up log10 TGI: `O=c1cc(N=Nc2ccc(Cl)cc2)[nH]c(=O)[nH]1`
1.33

Need log10 TGI of `COc1cc2c(cc1OCCCCOc1ccc(-c3nc4ccccc4s3)cc1)N=C[C@@H]1CCCN1C2=O` , thanks.
0.27

// lookup log10 TGI for `Fc1ccc2[nH]cc(SSc3c[nH]c4ccc(F)cc34)c2c1`
1.26

Name the reported log10 TGI value associated with the compound `C1COCCOCCOCCOCCO1.CC(=O)[CH-]C(C)=O.CC(=O)[CH-]C(C)=O.CC(=O)[CH-]C(C)=O.[V]`
1.11

----------
# Test system: A498 renal
# Experiment notes: NCI tumour cell line growth inhibition, 48 h; in the data active means GI50 below about 0.43 µM; inactive means the rest
*1 amine or outer side, *2 acyl side, *3 side chain or, on linkers, in order; H or OH if unused. Where a SMILES comes first, the peptide text is derived from it. [ ]: non-standard residue; d: D form. X56 = CC[C@H](C)[C@H](OC(=O)[C@@H](C)[C@@H](CC)N[*:1])C(=O)[*:2]; X32 = C[C@H](N[*:1])C(=O)C(C)(C)C(=O)[*:2]; NMeY = CN[C@@H](Cc1ccc(O)cc1)C(=O)O; NMeL = CN[C@@H](CC(C)C)C(=O)O; NMeV = CN[C@H](C(=O)O)C(C)C
I would appreciate it if you answered using one of these outcomes: active, inactive

Known results for molecules:
COc1cc(OC)c(C(=O)/C=C/c2cccc(OC(C)=O)c2)cc1CC=C(C)C	inactive
C=C1C(=O)O[C@H]2[C@H]1CC/C(COC(=O)c1ccccc1)=C\CC[C@@]1(C)O[C@@H]21	inactive
O=C(COc1cccc(/C=C2\CSc3ccccc3C2=O)c1)c1ccc(Cl)cc1	inactive
N#Cc1c(N)nc(N2CCOCC2)c(C#N)c1-c1ccccc1Cl	inactive

Returns: the outcome recorded for `CC(C)Nc1ncc2cc(Oc3ccc(F)cc3F)c(=O)n(C)c2n1` in this assay.
inactive

Returns: the outcome recorded for CC[C@H](C)[C@@H]1OC(=O)[C@@H](C)[C@@H](CC)NC(=O)[C@H](C)NC(=O)C(C)(C)C(=O)[C@H](C)NC(=O)[C@H](Cc2ccc(OC)cc2)N(C)C(=O)[C@H](C(C)C)N(C)C(=O)CNC(=O)[C@H](CC(C)C)N(C)C(=O)CNC1=O (cyclo(A[X56]G[NMeL]G[NMeV][NMeY](Me)[X32])) in this assay.
active

For `CN1CCN(c2ccc(C(=O)Nc3cc(-c4cccc(NS(=O)(=O)c5ccccc5)c4)[nH]n3)cc2)CC1` , what call appears in the results of this test?
inactive
